Origin of measurements: patent US5464617A

Test system: E. coli 1346
ASSAY PROTOCOL: Antibacterial activity of the products per se, serial dilution method in liquid medium (Test E)
Type: cell-based
EXPERIMENTAL SETUP: Table 4; test E, product per se
Counter-ions that a name gives are not always drawn.
EXPERIMENTAL READOUT: MIC E. coli 1346 (E)

NC(=O)OCC1=C(C(=O)O)N2C(=O)[C@@H]3[C@H]2[C@H](C1)CN3CC(=O)Nc1ccc(O)cc1 [Example 59(a), sodium salt]    2 µg/mL
CC(=O)N1C[C@H]2CC(COC(=O)NCC(N)=O)=C(C(=O)O)N3C(=O)[C@@H]1[C@@H]23 [96(a), sodium salt]    8 µg/mL

Now examine the next entry.
Challenge: Recorded MIC E. coli 1346 (E) for N#C/C=C\C1=C(C(=O)O)N2C(=O)[C@@H]3[C@H]2[C@H](C1)CN3C(=O)Nc1ccc(O)cc1 [49(a), sodium salt] , please?
Response given: > 32 µg/mL

====

Tested on: E. coli 1346
ASSAY PROTOCOL: Antibacterial activity of the products per se, serial dilution method in liquid medium (Test E)
Assay type: cell-based
EXPERIMENTAL SETUP: Table 3; product per se, liquid medium
Counter-ions that a name gives are not always drawn.
Please note: MIC E. coli 1346 exactly at 8 µg/mL is 0 (no). Only values below 8 µg/mL get 1 (yes).

Use these answered entries as a reference point.
CS(=O)(=O)OC1=C(C(=O)O)N2C(=O)[C@H]3NC[C@@H](C1)[C@H]32    1 (yes)
Cn1nnnc1SCC1=C(C(=O)O)N2C(=O)[C@@H]3[C@H]2[C@H](C1)CN3C(=O)N[C@H]1CCNC1=O [18(c), sodium salt]    0 (no)
CS(=O)(=O)OC1=C(C(=O)O)N2C(=O)[C@@H]3[C@H]2[C@H](C1)CN3C(=O)NCc1ccc(O)c(O)c1 [9(d), sodium salt]    0 (no)
O=C([O-])C1=C(C[n+]2ccccc2)C[C@@H]2CN[C@@H]3C(=O)N1[C@H]23    1 (yes)
Cn1nnnc1SCC1=C(C(=O)O)N2C(=O)[C@@H]3[C@H]2[C@H](C1)CN3C(=O)Nc1ccc(C(N)=O)cc1 [18(b), sodium salt]    0 (no)

Challenge: # strict comparison: is reported MIC E. coli 1346 < 8 µg/mL? input = Cn1nnnc1SC1=C(C(=O)O)N2C(=O)[C@@H]3[C@H]2[C@H](C1)CN3C(=O)NCc1ccc(S(N)(=O)=O)cc1 [3(g), sodium salt]
Response given: 0 (no)

====

System: E. coli 1346
ASSAY PROTOCOL: Antibacterial activity of the products per se, serial dilution method in liquid medium (Test E)
Type: cell-based
EXPERIMENTAL SETUP: Table 4; test E, product per se
Counter-ions that a name gives are not always drawn.
Below is a list of entries, each paired with its recorded MIC E. coli 1346 (E) value.
Express the result in µg/mL but write the number alone.

Worked examples, 5 compounds total:
CSc1nnnn1CC1=C(C(=O)O)N2C(=O)[C@H]3NC[C@@H](S1)[C@H]32 [Example 44, sodium salt]    32
NC(=O)OCC1=C(C(=O)O)N2C(=O)[C@@H]3[C@H]2[C@H](C1)CN3C(=O)CSc1ccncc1 [58(g), sodium salt]    8
NC(=O)Cn1nnnc1SCC1=C(C(=O)O)N2C(=O)[C@H]3NC[C@@H](C1)[C@H]32    2
CC(=O)N1C[C@H]2CC(COC(=O)NC3CC3)=C(C(=O)O)N3C(=O)[C@@H]1[C@@H]23 [94(a), sodium salt]    2
NC(=O)OCC1=C(C(=O)O)N2C(=O)[C@@H]3[C@H]2[C@H](C1)CN3C(=O)CNc1ccccc1 [58(h), sodium salt]    32

Challenge: What MIC E. coli 1346 (E) appears in the records for this compound with E. coli 1346? CNC(=O)Cn1nnnc1SCC1=C(C(=O)O)N2C(=O)[C@@H]3[C@H]2[C@H](C1)CN3C(C)=O [74(a), sodium salt]
Response given: 2

Challenge: Try this compound next: `N#C/C=C\C1=C(C(=O)O)N2C(=O)[C@H]3NC[C@@H](C1)[C@H]32`
Response given: 16

Challenge: Try this compound next: CC(=O)N1C[C@H]2CC(CSc3nnnn3CC(=O)NCCc3ccccc3)=C(C(=O)O)N3C(=O)[C@@H]1[C@@H]23 [80(a), sodium salt]
Response given: 0.5
